System: KRAS-mutant PDC complex spheroid viability
measurementNotes: Anticancer human tumor 186277-243-T-J2-PDC patient-derived colon adenocarcinoma cell line growth inhibition [KRAS2]
recordedConditions: curve of first compound; second compound 3.16 µM
measuredParameter: log10(IC50) (log10 of the value in nM)
Remember, log10 of IC50, in nM.

Recorded log10(IC50), per entry:
compound: CC1(C)CCC(CN2CCN(c3ccc(C(=O)NS(=O)(=O)c4ccc(NCC5CCOCC5)c([N+](=O)[O-])c4)c(Oc4cnc5[nH]ccc5c4)c3)CC2)=C(c2ccc(Cl)cc2)C1 + COc1cc2nc(C)nc(NC(C)c3cc(N)cc(C(F)(F)F)c3)c2cc1OC1CCOC1
measuredTarget: KRAS-mutant PDC complex spheroid viability
log10(IC50): 3.32
//
compound: CC(C)n1nc(-c2ccc3oc(N)nc3c2)c2c(N)ncnc21 + C=CC(=O)N1CCN(c2nc(=O)n(-c3c(C)ccnc3C(C)C)c3nc(-c4c(O)cccc4F)c(F)cc23)C(C)C1
measuredTarget: KRAS-mutant PDC complex spheroid viability
log10(IC50): 0.67
//
compound: CC1OCC2(CCN(c3cnc(Sc4ccnc(N)c4Cl)c(N)n3)CC2)C1N (stereo unspecified) + CNCc1ccccc1-c1csc(C(C)Nc2nc(C)nc3cc(OC)c(OC)cc23)c1
measuredTarget: KRAS-mutant PDC complex spheroid viability
log10(IC50): 3.18

Challenge: For CC(=O)Nc1cccc(-n2c(=O)n(C3CC3)c(=O)c3c(Nc4ccc(I)cc4F)n(C)c(=O)c(C)c32)c1 + C=CC(=O)N1CCN(c2nc(=O)n(-c3c(C)ccnc3C(C)C)c3nc(-c4c(O)cccc4F)c(F)cc23)C(C)C1 , write its log10(IC50).
Response given: -0.35

Challenge: Complete the entry with log10(IC50) for CCNC(=O)CC1N=C(c2ccc(Cl)cc2)c2cc(OC)ccc2-n2c(C)nnc21 (stereo unspecified) + CNCc1ccccc1-c1csc(C(C)Nc2nc(C)nc3cc(OC)c(OC)cc23)c1
Response given: 2.58

Challenge: Name the recorded log10(IC50) of the compound listed here: O=C(c1cc(Cc2n[nH]c(=O)c3ccccc23)ccc1F)N1CCN(C(=O)C2CC2)CC1 + CNCc1ccccc1-c1csc(C(C)Nc2nc(C)nc3cc(OC)c(OC)cc23)c1
Response given: 2.81

Challenge: Consider the compound CC(C)NCC(C(=O)N1CCN(c2ncnc3c2C(C)CC3O)CC1)c1ccc(Cl)cc1 (stereo unspecified) + C=CC(=O)N1CCN(c2nc(=O)n(-c3c(C)ccnc3C(C)C)c3nc(-c4c(O)cccc4F)c(F)cc23)C(C)C1 and give its recorded log10(IC50).
Response given: 2.43

Hello, the source for this data is PubChem BioAssay AID1963875, in case you need it.
